- Tested on: Blumeria graminis
- test: Fungicidal activity against Blumeria graminis infected compound pre-treated wheat plants assessed as disease preventive activity at 1.5 ppm measured after 1 or 2 weeks
- Assay type: functional
property-label: Activity (%)
Numbers only, in %.

Below are some molecules; for each one, tell me its Activity.
1. CCO/C(=N\OCc1ccccc1/C(=C\OC)C(=O)OC)c1cc(C(F)(F)F)cc(C(F)(F)F)c1
2. CCO/C(=N\OCc1ccccc1/C(=N\OC)C(=O)OC)c1cc(C(F)(F)F)cc(C(F)(F)F)c1
3. CO/C=C(/C(=O)OC)c1ccccc1CO/N=C(\N)c1cc(C(F)(F)F)cc(C(F)(F)F)c1
4. CO/N=C(/C1=NOCCO1)c1ccccc1CO/N=C(\OC)c1cc(C(F)(F)F)cc(C(F)(F)F)c1

Return:
35
15
40
95
